- Test system: SF-268 CNS
- assay-summary: NCI tumour cell line growth inhibition, 48 h
quantity-measured: TGI

compound: Cc1cc(=O)oc2c(CNC(C)C(=O)O)c(O)ccc12 (configuration not stated)
TGI: > 100 µM

compound: O=C(CCc1nnc(-c2c(Cl)cccc2Cl)o1)c1nc2ccccc2[nH]1
TGI: 46.6 µM

compound: Nc1nc(=O)n(C2CC(O)C(O)C(CO)O2)cc1F (configuration not stated)
TGI: > 100 µM

So what does the record say about TGI for O=C(c1ccccn1)c1nnn2ccccc12 ?
> 100 µM

Follow-up entry: CN(C)c1ccc(/C=C/C(=O)c2ccccc2)cc1Br
49.3 µM

Follow-up entry: O=c1c2cc(Br)ccc2[nH]c(=S)n1-c1ccc(Br)cc1
> 100 µM

Follow-up entry: COc1nc(/C=N/NC(N)=S)nc(OC)n1
> 100 µM
